Reported log10 IC50 by item:
Target: human 5HT1A receptor (Homo sapiens)
Construct: purchased Perkin Elmer; host or cells: HEK293 cells, stably transfected (membranes)
Assay: [35S]GTPγS binding for 5-HT1A receptor inhibition (antagonist mode)
Assay type: biochemical
Details: Example 78, HEK293 membranes, antagonist mode with serotonin 100 nM, <5 = not active at up to 10 μM, read-out: h5HT1A Antagonist pIC50 (converted)
Experimental: Compounds showing affinity at the 5-HT1A receptor were tested for functional agonism and antagonism in a [^35S]GTPγS (guanine triphosphate (non-hydrolysable, labelled with ^35S) binding assay on membranes of HEK293 cells permanently transfected with human 5HT1A receptor (Perkin Elmer, USA). Frozen membranes were thawed, briefly homogenized and were diluted in incubation buffer, 100 mM NaCl, 0.3 mM MgCl2 and 10 μM guanine diphosphate (GDP), pH 7.4-7.5) supplemented with 10 μg/ml saponin. […]
Assay Metric: log10 IC50 (log10 of the value in µM)

>>> observed_value("Cc1cc2c(OC[C@@H](O)CN3C[C@@H]4C/C=C\\C[C@H]3CN4c3cnc4ccccc4c3)cccc2[nH]1")
0.06
>>> observed_value("Cc1cc2c(OC[C@@H](O)CN3C[C@@H]4C/C=C\\C[C@H]3CN4c3ccc(Cl)c(Cl)c3)cccc2[nH]1")
-0.09
>>> observed_value("Cc1cc2c(OC[C@@H](O)CN3C[C@@H]4C/C=C\\C[C@H]3CN4c3ccc4c(c3)OCCO4)cccc2[nH]1")
-1.32
>>> observed_value("Cc1cc2c(OCCCN3C[C@@H]4C/C=C\\C[C@H]3CN4c3ccc4ccccc4c3)cccc2[nH]1")
1.04
>>> observed_value("O[C@H](COc1cccc2ncccc12)CN1C[C@@H]2C/C=C\\C[C@H]1CN2c1ccc2ccccc2c1")
-0.07
>>> observed_value("Cc1cc2c(OC[C@@H](O)CN3C[C@@H]4C/C=C\\C[C@H]3CN4c3cccc4ncccc34)cccc2[nH]1 [compound 157]")
-0.12
>>> observed_value("Cc1cc2c(OC[C@@H](O)CN3C[C@@H]4C/C=C\\C[C@H]3CN4c3cccc4ncccc34)cccc2[nH]1 [ID No. 136]")
-0.51

----------
Items are presented alongside their recorded IC50.
Molecular target: human 5HT1A receptor (Homo sapiens)
Construct: purchased Perkin Elmer; host or cells: HEK293 cells, stably transfected (membranes)
Assay: Radioligand binding to the 5-HT1A receptor, [3H]8-OH-DPAT
Conditions: Example 77; membranes of HEK293 cells, [3H]8-OH-DPAT 0.5 nM; <5 = not active at up to 10 μM; read-out: h5HT1A pIC50 (converted)
Assay Metric: IC50

>>> observed_value("Cn1ccc2c(OC[C@@H](O)CN3C[C@H]4C/C=C\\C[C@@H]3CN4c3ccc4ccccc4c3)cccc21")
"> 10000 nM"
>>> observed_value("Cc1cc2c(OC[C@@H](O)CN3C[C@@H]4C/C=C\\C[C@H]3CN4c3ccc(Cl)c(Cl)c3)cccc2[nH]1")
"97.7 nM"
>>> observed_value("Cc1cc2c(OCCCN3C[C@@H]4C/C=C\\C[C@H]3CN4c3ccc4ccccc4c3)cccc2[nH]1")
"282 nM"
>>> observed_value("COC(=O)c1cc2c(OC[C@@H](O)CN3C[C@@H]4C/C=C\\C[C@H]3CN4c3ccc4ccccc4c3)cc(OC)cc2[nH]1")
"240 nM"

----------
Target: human 5-HTT (Homo sapiens, UniProt P31645)
Construct: purchased Perkin-Elmer, USA; host or cells: HEK293 cells, stably transfected (membranes)
Sequence (P31645 whole entry): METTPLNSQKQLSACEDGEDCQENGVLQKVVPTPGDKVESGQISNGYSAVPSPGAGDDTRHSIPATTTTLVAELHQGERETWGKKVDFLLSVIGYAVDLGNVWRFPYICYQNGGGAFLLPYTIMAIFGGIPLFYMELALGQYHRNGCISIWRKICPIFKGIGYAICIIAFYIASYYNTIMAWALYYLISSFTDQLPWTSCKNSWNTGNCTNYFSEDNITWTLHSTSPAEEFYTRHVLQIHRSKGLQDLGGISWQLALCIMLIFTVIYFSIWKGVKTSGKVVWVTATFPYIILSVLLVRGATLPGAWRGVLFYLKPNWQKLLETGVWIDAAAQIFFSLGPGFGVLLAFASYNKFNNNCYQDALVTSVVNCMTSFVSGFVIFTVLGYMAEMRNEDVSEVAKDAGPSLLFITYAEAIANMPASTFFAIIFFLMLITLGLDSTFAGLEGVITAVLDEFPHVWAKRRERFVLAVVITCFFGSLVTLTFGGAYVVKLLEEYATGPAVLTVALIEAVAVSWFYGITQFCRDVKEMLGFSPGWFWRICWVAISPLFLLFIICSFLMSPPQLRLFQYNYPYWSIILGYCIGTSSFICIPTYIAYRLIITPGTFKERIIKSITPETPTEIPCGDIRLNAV
Assay: Radioligand binding to 5-HTT (serotonin transporter, SERT), [3H]Paroxetine
Details: h5HTT pIC50, Example 77; membranes of HEK293 cells, [3H]Paroxetine 0.5 nM; <5 = not active at up to 10 μM
pIC50: −log10 of the molar value.
Assay Metric: pIC50

>>> observed_value("C1=C\\C[C@H]2CN[C@@H](C/1)CN2c1cccc2ccccc12")
7.15

----------
Target: human 5HT1A receptor (Homo sapiens, UniProt P08908)
Construct: purchased Perkin Elmer; host or cells: HEK293 cells, stably transfected (membranes)
Sequence (P08908 1-422): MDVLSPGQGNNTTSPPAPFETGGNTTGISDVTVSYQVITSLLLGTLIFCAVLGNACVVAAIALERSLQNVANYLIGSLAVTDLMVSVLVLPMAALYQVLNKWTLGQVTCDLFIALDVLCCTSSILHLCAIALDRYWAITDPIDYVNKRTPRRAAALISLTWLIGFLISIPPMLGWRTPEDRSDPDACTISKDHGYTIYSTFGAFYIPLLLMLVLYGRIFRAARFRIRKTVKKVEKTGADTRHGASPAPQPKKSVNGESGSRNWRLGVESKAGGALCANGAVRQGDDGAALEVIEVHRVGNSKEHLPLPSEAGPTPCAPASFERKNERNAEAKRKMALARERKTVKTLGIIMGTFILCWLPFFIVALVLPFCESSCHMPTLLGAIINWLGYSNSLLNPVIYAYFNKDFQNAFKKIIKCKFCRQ
Assay: Radioligand binding to the 5-HT1A receptor, [3H]8-OH-DPAT
Details: Example 77; membranes of HEK293 cells, [3H]8-OH-DPAT 0.5 nM; <5 = not active at up to 10 μM; read-out: h5HT1A pIC50 (converted)
Experimental: Frozen membranes of HEK293 cells, stably-transfected with human 5-HT1A receptor (Perkin Elmer) were thawed on ice, briefly homogenised with an Ultra Turrax homogeniser and then suspended in Tris-HCl buffer (50 mM pH 7.7) supplemented with CaCl2 (4 mM) at an appropriate pre-determined protein concentration (5-10 μg protein per incubation mixture). […] Non-specific binding was determined in the presence of Spiroxatrine (1 μM). […]
Assay Metric: IC50 (µM)

>>> observed_value("C1=C\\C[C@H]2CN(CCNc3ccccn3)[C@@H](C/1)CN2c1ccc2ccccc2c1 [compound 142]")
9.77
>>> observed_value("Cc1cc2c(OC[C@@H](O)CN3C[C@@H]4C/C=C\\C[C@H]3CN4c3ccc4ccccc4c3)c(F)ccc2[nH]1 [compound 148]")
0.138

----------
Target: human 5HT1A receptor (Homo sapiens)
Construct: purchased Perkin Elmer; host or cells: HEK293 cells, stably transfected (membranes)
Sequence (P08908 1-422): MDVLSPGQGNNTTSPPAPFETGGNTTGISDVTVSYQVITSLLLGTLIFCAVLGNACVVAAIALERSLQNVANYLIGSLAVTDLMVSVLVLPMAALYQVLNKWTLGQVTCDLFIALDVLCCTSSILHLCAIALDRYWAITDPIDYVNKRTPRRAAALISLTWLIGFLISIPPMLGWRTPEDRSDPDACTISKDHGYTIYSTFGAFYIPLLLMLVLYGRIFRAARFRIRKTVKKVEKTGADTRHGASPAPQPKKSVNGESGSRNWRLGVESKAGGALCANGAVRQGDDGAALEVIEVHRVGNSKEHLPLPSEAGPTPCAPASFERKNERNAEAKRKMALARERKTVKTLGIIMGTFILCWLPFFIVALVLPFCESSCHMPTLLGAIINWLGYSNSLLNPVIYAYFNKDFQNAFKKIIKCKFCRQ
Experiment: Radioligand binding to the 5-HT1A receptor, [3H]8-OH-DPAT
Settings: Example 77; membranes of HEK293 cells, [3H]8-OH-DPAT 0.5 nM; <5 = not active at up to 10 μM; read-out: h5HT1A pIC50 (converted)
Assay Metric: IC50

>>> observed_value("COc1cc2c(cc1OC)C1=NO[C@H](CN3C[C@@H]4C/C=C\\C[C@H]3CN4c3ccc4ccccc4c3)C1CO2 (stereo partly drawn)")
"> 10 µM"
>>> observed_value("C1=C\\C[C@H]2CN(c3ccc4ccccc4c3)[C@@H](C/1)CN2C1Cc2ccccc2C1")
"> 10 µM"
>>> observed_value("C#CCN1C[C@@H]2C/C=C\\C[C@H]1CN2c1ccc2ccccc2c1")
"> 10 µM"
